This section presents variants with their documented self-cleavage values.
B1: OR4K15 (parent)
chain: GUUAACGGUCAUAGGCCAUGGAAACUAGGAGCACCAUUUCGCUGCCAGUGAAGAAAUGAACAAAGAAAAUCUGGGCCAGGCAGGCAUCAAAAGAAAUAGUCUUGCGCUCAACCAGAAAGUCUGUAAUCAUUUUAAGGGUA

variants of: B1; experiment: self-cleavage, relative activity (ratio to wild type); higher = more cleavage; in vitro, sequencing; the parent is a self-cleaving ribozyme
ASSAY METRIC: self-cleavage

GUUAACGGUCAUAGGCCAUGGAAACUAGGAGCACCAUUUCGCUGCCAGUGAAGAAAUGAACAAAGAAAAUCUGGGCCAGGCAGGCAUCAAAAGAAAUAGUCUUGCGCUCAACCAGAAAGUCUGUAAUCAUUCUAAGGGAA [U132C U139A]
0.99
GUUAACGGUCAUAGGCCAUGGAAACUAGGAGCACCAUUUCGCUGCCAGUGAAGAAAUGAGCAAAGAAAAUCUGGGCCAGGCAGGCAUCAAAAGAAAUAGUCUUGCGCUCAACCAGAAAGUCCGUAAUCAUUUUAAGGGUA [A60G U122C]
0.84
GUUAGCGGUCAUAGGCCAUGGAAACUAGGAGCACCAUUUCGCUGCCAGCGAAGAAAUGAACAAAGAAAAUCUGGGCCAGGCAGGCAUCAAAAGAAAUAGUCUUGCGCUCAACCAGAAAGUCUGUAAUCAUUUUAAGGGUA [A5G U49C]
0.97
GUUAACGGUCAUAGGCCAUGGAAACUAGGAGCACCAUUUCGCUGCCAGAGAAGAAAUGAACAAAGAAAAUCUGGGCCAGGCAGGCAUCAAAAGAAAUAGUCUUGCGCUCAGCCAGAAAGUCUGUAAUCAUUUUAAGGGUA [U49A A111G]
0.01
